Measured IC50 of individual entries
- Test system: Plasmodium falciparum
- MEASUREMENT PROTOCOL: Antimalarial activity against chloroquine-sensitive Plasmodium falciparum 3D7 after 72 hrs by MSF assay
- Type: functional, organism-based
- DETAILS: 3D7, 72 h
Value expressed in µg/mL; do not type the unit.

Solved cases below.
> print(dat)
                                   compound  observed
1  C=C(c1ccc(F)cc1)C1COC(c2cc(C(C)CC)c3oc(=O)c(C(=O)OCC)cc3c2)OO1 (stereo not given)     0.117
2  C=C(c1ccc(C)cc1)C1COC(c2cc(C)c3oc(=O)c(C(=O)OC)cc3c2)OO1 (stereo not given)     0.361
3  C=C(c1ccc(Br)cc1)C1COC(c2cc(C(C)CC)c3oc(=O)c(C(=O)OCC)cc3c2)OO1 (stereo not given)      0.11
4  C=C(c1ccc(Br)cc1)C1COC(c2cc(C(C)CC)c3oc(=O)c(C(=O)OC)cc3c2)OO1 (stereo not given)     0.076

Moving on to another compound below.
Query the reported IC50 for Plasmodium falciparum; item: C=C(c1ccc(Br)cc1)C1COC(c2cc(C)c3oc(=O)c(C(=O)OC)cc3c2)OO1 (stereo not given)
0.306
